Attribution: PubChem BioAssay (NCI)

system: SK-OV-3 ovarian; assay: NCI tumour cell line growth inhibition, 48 h

{"columns": ["COMPOUND", "TGI"],
 "data": [
  ["CC(C)NC(=O)OCc1c(COC(=O)NC(C)C)c(-c2ccc[n+](COC(=O)C3CCCCC3)c2)n2c1CCC2", "> 100 µM"],
  ["COc1cc2c(cc1C)NC(=O)/C2=C/c1c(Cl)n(C)c2ccccc12", "39.8 µM"],
  ["COC(=O)c1c(OC(=O)c2ccccc2)noc1CC(=O)OC1C=CCCC1 (stereo unspecified)", "> 100 µM"],
  ["Nc1c2ccccc2nc2ccc(C(=O)Nc3ccc(S(N)(=O)=O)cc3)cc12", "> 100 µM"],
  ["O=C1OC2C(O)COC2(OCc2c[nH]c3ccccc23)C1O (stereo unspecified) (tested in a mixture with another compound)", "> 100 µM"],
  ["O=c1[nH]c2cccccc-2c1-c1nc2ccccc2[nH]1", "51.2 µM"],
  ["COc1cc2c(c(OC)c1OC)-c1c(c3ccc([N+](=O)[O-])cc3c(=O)n1CCCN=[N+]=[N-])C2=O", "55.2 µM"],
  ["COc1ccc(C2Oc3cc(OC)c(O)cc3[C@@H]2C)cc1 (stereo partly specified)", "> 100 µM"],
  ["N#Cc1ccccc1C#C/C=C\\C#Cc1cnccn1", "> 100 µM"],
  ["Cn1cnc2nc(Cl)nc(Cl)c21", "> 100 µM"],
  ["CCO/C=N/C1=C(C#N)C(c2ccc(OC)c(OC)c2)c2c(-c3ccccc3)nn(-c3ccccc3)c2O1 (stereo unspecified)", "60.2 µM"],
  ["O=C(/C=C\\c1ccc(Cl)c(Cl)c1)c1ccccc1", "29.8 µM"],
  ["COc1ccc(/C=C2\\CN(Cc3cn(CCCNc4ccnc5cc(Cl)ccc45)nn3)C/C(=C\\c3ccc(OC)cc3)C2=O)cc1", "30.6 µM"],
  ["Cc1nc2cc(NC(=O)CN3CCN(CCN4C(=O)c5cccc6cccc(c56)C4=O)CC3)ccc2s1", "> 100 µM"],
  ["CC(=O)NC(Cc1ccccc1)C(=S)N1CCCC1 (stereo unspecified)", "> 100 µM"],
  ["CC(C)(Oc1ccc(C2C[C@H]2Cl)cc1)C(=O)O (stereo partly specified)", "> 100 µM"],
  ["N#Cc1c(-c2ccc(Cl)cc2)n([O-])c2ccccc2[n+]1=O", "72.3 µM"],
  ["N#Cc1ccc(NC(=NCC(=O)O)Nc2ccc3ccccc3c2)cc1", "> 10 µM"],
  ["Cc1ccc(CCNC(=S)SCC(NC(=O)CCC(N)C(=O)O)C(=O)NCC(=O)O)cc1 (stereo unspecified)", "19.2 µM"],
  ["Cc1c2cccc-2c(N(C)C)cc2c1[nH]c1ccccc12", "15.1 µM"],
  ["CNCc1ccc(C)c(NC(=O)c2ccc(Nc3nc(-c4ccccc4)c4ccccc4n3)cc2)c1", "4.08 µM"]
]}

---

test system: NCI-H460 lung; test: NCI tumour cell line growth inhibition, 48 h
REPORTED_ENDPOINT: TGI (µM)

{"columns": ["MOLECULE", "REPORTED_ENDPOINT", "SIGN_QUALIFIER", "NUMERIC_VALUE"],
 "data": [
  ["CCC1(CC)C(=O)N(C(=O)c2ccc(Cl)cc2)N(C(=O)c2ccccc2Cl)C1=O", "TGI", "=", 41.8],
  ["CC1=C2CC3=C(C)C(=O)O[C@H]3C[C@@H](C)[C@@H]2CC1", "TGI", ">", 100],
  ["Cc1cccc2ns[s+]c12", "TGI", ">", 100],
  ["Cc1cc(C)n(CN(Cn2nc(C)cc2C)c2ccc(N(Cn3nc(C)cc3C)Cn3nc(C)cc3C)cc2)n1", "TGI", "=", 63.8],
  ["O=C1N[C@@H](c2c[nH]c3ccc(Br)cc23)C(=O)N[C@H]1c1c[nH]c2ccc(Br)cc12", "TGI", "=", 27.8],
  ["COc1ccc(C2Oc3cc(OC)c(O)cc3[C@@H]2C)cc1 (some centres undefined)", "TGI", ">", 100],
  ["CN1CCN(c2nc3c(c(=O)n(C)c(=O)n3C)n2C)CC1", "TGI", ">", 100],
  ["O=C(O)CCCCCNC(=O)CCC(CN(CC(=O)OCc1ccccc1)CC(=O)OCc1ccccc1)N(CC(=O)OCc1ccccc1)CC(=O)OCc1ccccc1 (centres undefined)", "TGI", "=", 55.7],
  ["COC[C@@H](N=Cc1ccc(OC)cc1)C(C)C", "TGI", ">", 100]
]}

---

tested on: HT29 colon; assay: NCI tumour cell line growth inhibition, 48 h

{"columns": ["COMPOUND", "TGI"],
 "data": [
  ["O=C1/C(=C/c2ccc([N+](=O)[O-])s2)Oc2ccc(Cl)cc21", "5.49 µM"],
  ["O=C(CCc1nnc2s/c(=C\\c3ccc(Cl)cc3Cl)c(=O)n12)Nc1cc(Cl)c(Cl)cc1Cl", "> 100 µM"],
  ["CN1CCN(Cc2ccc(NC(=O)c3cncc(C#Cc4c(N)ncc5ccc(F)cc45)c3)cc2C(F)(F)F)CC1", "0.789 µM"],
  ["CC1SC(c2cccc(Oc3ccccc3)c2)N(CCc2cccs2)C1=O (configuration not stated)", "2.93 µM"],
  ["O=C1NC(N2CCCC(CO)C2)=N/C1=C\\c1ccc(O)cc1 (configuration not stated)", "> 100 µM"],
  ["CC(=O)OC12CCCCC1C1(CCCC1)NC2=O (configuration not stated)", "> 100 µM"],
  ["CSc1nc(Cl)c2c(n1)Sc1ncnn1C2O (configuration not stated)", "28.4 µM"],
  ["c1ccc(C2(c3cc4ccccc4[nH]3)OCCO2)cc1", "> 100 µM"],
  ["COC[C@@H](N=Cc1ccc(OC)cc1)C(C)C", "> 100 µM"],
  ["CC(C)CCC[C@@H](C)[C@H]1CC[C@H]2[C@@H]3CC=C4CC(OCCCCN(O)CCCSC5OC(CO)C(O)C(O)C5O)CC[C@]4(C)[C@H]3CC[C@]12C (some centres not stated)", "> 100 µM"],
  ["COc1ccc(/C=C(\\NC(=O)c2ccccc2)c2nc3ccccc3[nH]2)cc1", "> 100 µM"],
  ["O=C(C(=O)n1ccc2ccccc21)c1c[nH]c2ccccc12", "> 10 µM"],
  ["CN(C)/C=C/c1ccnc2c1C(=O)c1ccccc1C2=O", "37.9 µM"],
  ["O=c1[nH]/c(=C/c2ccc(OCc3ccccc3)cn2)c(=O)[nH]/c1=C/c1cccnc1", "> 100 µM"],
  ["Clc1ccc(CCn2ccc3ccccc32)c(Cl)c1", "> 100 µM"],
  ["NC(=O)NOCC1NC(=O)NC1=O (configuration not stated)", "> 100 µM"],
  ["COCC(O)CN1C(N)=NC(O)C1O (configuration not stated)", "> 100 µM"],
  ["OB1OCc2ccccc21", "> 100 µM"],
  ["O=C1CSC(c2ccc(Cl)cc2)N1c1ccc(-n2c(-c3ccccc3)nc3ccccc3c2=O)cc1 (configuration not stated)", "> 100 µM"],
  ["O=[N+]([O-])c1ccc(-c2ccc(C3=Nn4c(nnc4-c4ccc(Cl)cc4)SC3)o2)cc1", "> 100 µM"],
  ["Cc1ccc(CCNC(=S)SCC(NC(=O)CCC(N)C(=O)O)C(=O)NCC(=O)O)cc1 (configuration not stated)", "7.01 µM"],
  ["C=C1C(=O)O[C@H]2[C@H]1CC/C(Cn1cc(CNC(=O)c3cc4ccccc4[nH]3)nn1)=C\\CC[C@@]1(C)O[C@@H]21", "10.1 µM"],
  ["NCCN.O=N[O-].O=N[O-].O=N[O-].O=N[O-].[Co+3].[K+]", "> 100 µM"],
  ["O=C(/C=C\\c1ccc(Cl)c(Cl)c1)c1ccccc1", "5.37 µM"],
  ["CC(C)(O)C1CC(=O)C(C)(C2C(O)CC3(C)C4CC=C5C(CCC(O)C5(C)C)C4(C)C(=O)CC23C)O1 (configuration not stated)", "> 100 µM"],
  ["Cc1ccc(SCN2CCCCC2)cc1 (tested in a mixture with another compound)", "31.5 µM"],
  ["CC[N+]1(C)CCC(O)(/C=C/c2ccccc2)C(C(=O)/C=C/c2ccccc2)C1 (configuration not stated)", "27.5 µM"],
  ["Nc1nc(N)c2nn(-c3ccc(C(=O)O)cc3)nc2n1", "> 100 µM"],
  ["O=C(CSCC(=O)N/N=C\\c1cc(Br)cc(Br)c1O)N/N=C\\c1cc(Br)cc(Br)c1O", "> 100 µM"],
  ["N#Cc1ccc(/C=C2\\Cc3ccccc3C2=O)cc1", "> 100 µM"],
  ["O=C1c2c(ccc3c2CCCC3)CC12Cc1ccccc1C2", "> 57.1 µM"],
  ["CCS(=O)(=O)Nc1ccc(Oc2ccc(F)cc2F)c(-c2cn(C)c(=O)c3[nH]ccc23)c1", "14.1 µM"],
  ["Cc1[nH]c(=O)nc2c1C(=O)N(C(C)C)C(NC(C)C)S2 (configuration not stated)", "> 100 µM"],
  ["O=C(CN1C(=O)c2ccccc2C1=O)NC1(C(=O)O)CCCC1", "> 100 µM"],
  ["Cn1cc(C2=C(c3cn(CCCSC(=N)N)c4ccccc34)C(=O)NC2=O)c2ccccc21", "11.1 µM"],
  ["COc1ccc(/C=N/NC(=O)c2ccccc2Nc2ccccc2C(=O)N/N=C/c2ccc(OC)c(OC)c2)cc1OC", "> 100 µM"],
  ["C=CCn1c(=O)c(-c2ccccc2)c(O)c2ccccc21", "> 100 µM"],
  ["O=C(/C=C/CN1CCCCC1)Nc1cc2c(Nc3ccc(F)c(Cl)c3F)ncnc2cc1OCCOC(F)F", "5.77 µM"],
  ["CC(C)(C)OC(=O)N(CCCN)CCCCN(CCCN)C(=O)OC(C)(C)C", "> 100 µM"],
  ["CN1CCN(c2nc3c(c(=O)n(C)c(=O)n3C)n2C)CC1", "> 100 µM"],
  ["Cc1ccc(S(=O)(=O)NC2(C=O)CCC(C(C)(C)C)CC2)cc1 (configuration not stated)", "> 100 µM"],
  ["Cn1cnc2nc(Cl)nc(Cl)c21", "12.6 µM"]
]}
